Below, each of the compounds is paired with its reported pIC50 value.
Target: CDK8/CycC (Homo sapiens, UniProt P49336)
Construct: purchased Invitrogen PV4402
Sequence (P49336 whole entry): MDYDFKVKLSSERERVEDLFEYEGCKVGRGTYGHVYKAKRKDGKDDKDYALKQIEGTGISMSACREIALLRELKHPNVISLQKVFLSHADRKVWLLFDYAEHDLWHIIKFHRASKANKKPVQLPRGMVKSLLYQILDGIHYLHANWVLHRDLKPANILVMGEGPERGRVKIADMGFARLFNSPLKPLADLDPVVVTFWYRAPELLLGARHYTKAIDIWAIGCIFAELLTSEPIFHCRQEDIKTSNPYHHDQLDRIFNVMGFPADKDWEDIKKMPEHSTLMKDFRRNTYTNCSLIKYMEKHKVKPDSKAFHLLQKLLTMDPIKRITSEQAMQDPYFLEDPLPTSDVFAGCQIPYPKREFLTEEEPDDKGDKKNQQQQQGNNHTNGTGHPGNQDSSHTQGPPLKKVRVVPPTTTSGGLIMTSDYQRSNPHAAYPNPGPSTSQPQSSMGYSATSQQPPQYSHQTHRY
Sequence (P24863 whole entry partner): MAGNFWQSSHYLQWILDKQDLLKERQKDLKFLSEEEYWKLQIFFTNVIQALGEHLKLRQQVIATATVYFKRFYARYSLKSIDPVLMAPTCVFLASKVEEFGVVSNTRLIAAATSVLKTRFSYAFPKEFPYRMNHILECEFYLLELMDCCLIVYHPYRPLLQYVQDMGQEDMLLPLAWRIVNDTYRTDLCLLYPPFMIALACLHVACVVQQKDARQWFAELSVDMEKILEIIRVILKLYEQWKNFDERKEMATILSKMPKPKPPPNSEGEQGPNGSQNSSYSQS
Experiment: FRET based Lanthascreen binding competition assay for CDK8 inhibitory activity
Settings: CDK8 co-expressed with CycC; class symbols; read-out: IC50
pIC50: −log10 of the molar value.

[
  {
    "COMPOUND": "Cc1n[nH]c2ncc(C(=O)N3CCC[C@H]3c3cccc(Cl)c3)cc12 [compound 46]",
    "pIC50": "7.00 to 8.00"
  },
  {
    "COMPOUND": "Cc1n[nH]c2ncc(C(=O)N3CC[C@@H](N)[C@H]3c3ccc(F)cc3)cc12 [compound 144]",
    "pIC50": "7.00 to 8.00"
  },
  {
    "COMPOUND": "Cc1n[nH]c2ncc(C(=O)N3C[C@@H](O)C[C@H]3c3ccc(F)cc3)cc12 [compound 145]",
    "pIC50": "6.00 to 7.00"
  },
  {
    "COMPOUND": "Nc1n[nH]c2ccc(C(=O)N3CCCC3c3ccccc3OCC(F)(F)F)cc12 (centres unmarked) [compound 114]",
    "pIC50": "6.00 to 7.00"
  },
  {
    "COMPOUND": "Nc1n[nH]c2ccc(C(=O)N3CCC(c4ccccc4)C3)cc12 (centres unmarked) [compound 84]",
    "pIC50": "6.00 to 7.00"
  }
]

----------
Molecular target: CDK8/CycC (Homo sapiens, UniProt P49336)
Construct: purchased Invitrogen PV4402
Test: FRET based Lanthascreen binding competition assay for CDK8 inhibitory activity
Conditions: CDK8 co-expressed with CycC; class symbols; read-out: IC50
Below, each of the compounds is paired with its reported IC50 value.

[
  {
    "COMPOUND": "CSc1n[nH]c2ccc(C(=O)N3CCC[C@H]3c3ccc(Cl)cc3)cc12",
    "ASSAY TARGET": "CDK8/CycC (Homo sapiens, UniProt P49336)",
    "IC50": "< 10 nM"
  },
  {
    "COMPOUND": "Cc1n[nH]c2ncc(C(=O)N3CCCC3c3ccc(C(C)C)cc3)cc12 (racemic)",
    "ASSAY TARGET": "CDK8/CycC (Homo sapiens, UniProt P49336)",
    "IC50": "< 10 nM"
  },
  {
    "COMPOUND": "Cc1n[nH]c2ncc(C(=O)N3CCC(O)(c4ccccc4)C3)cc12 (racemic) [compound 193]",
    "ASSAY TARGET": "CDK8/CycC (Homo sapiens, UniProt P49336)",
    "IC50": "1000 to 10000 nM"
  },
  {
    "COMPOUND": "Cc1n[nH]c2ncc(C(=O)N3CCC(O)(c4ccc(Cl)cc4)C3)cc12 (stereo not shown)",
    "ASSAY TARGET": "CDK8/CycC (Homo sapiens, UniProt P49336)",
    "IC50": "100 to 1000 nM"
  }
]

----------
Target: CDK8/CycC (Homo sapiens)
Construct: purchased Invitrogen PV4402
Assay: FRET based Lanthascreen binding competition assay for CDK8 inhibitory activity
Conditions: IC50 [μM], CDK8 co-expressed with CycC; class symbols
Below, each of the molecules is paired with its reported IC50 value.

[
  {
    "MOLECULE": "Cc1n[nH]c2ccc(C(=O)N3CCOCC3c3ccc(Cl)cc3)cc12 (stereo not drawn)",
    "IC50": "< 0.01 µM"
  },
  {
    "MOLECULE": "Nc1n[nH]c2ccc(C(=O)N3CCC3c3ccc(F)cc3)cc12 (stereo not drawn)",
    "IC50": "0.01 to 0.1 µM"
  },
  {
    "MOLECULE": "Cc1n[nH]c2ccc(C(=O)N3CC[C@@H]3c3ccc(Cl)cc3)cc12",
    "IC50": "0.1 to 1 µM"
  },
  {
    "MOLECULE": "Nc1n[nH]c2ccc(C(=O)N3CCC[C@@H]3c3ccc(Cl)cc3)cc12",
    "IC50": "0.1 to 1 µM"
  },
  {
    "MOLECULE": "Cc1n[nH]c2ccc(C(=O)N3CCC[C@H]3c3ccc(Cl)cc3)cc12",
    "IC50": "< 0.01 µM"
  },
  {
    "MOLECULE": "Nc1n[nH]c2ccc(C(=O)N3CCC[C@H]3c3ccc(Br)cc3)cc12",
    "IC50": "< 0.01 µM"
  },
  {
    "MOLECULE": "Nc1n[nH]c2ccc(C(=O)N3CCC[C@@H]3c3ccc(Br)cc3)cc12",
    "IC50": "0.1 to 1 µM"
  },
  {
    "MOLECULE": "Nc1n[nH]c2ccc(C(=O)N3CCC(c4ccc(Cl)cc4)C3)cc12 (stereo not drawn)",
    "IC50": "0.01 to 0.1 µM"
  },
  {
    "MOLECULE": "Nc1n[nH]c2ccc(C(=O)N3CC[C@H]3c3ccc(F)cc3)cc12",
    "IC50": "0.01 to 0.1 µM"
  }
]
